- System: HepG2
- Protocol: Antiproliferative activity against VEGF-stimulated human HepG2 cells after 48 hrs by CCK8 assay
- Type: functional, cell-based
- Stated Conditions: HepG2, 48 h
Quantity Name: IC50 (µM)

[A] O=C(NCc1ccccc1)c1cc(Oc2ccc(/C=C/c3ccncc3)cc2)ccn1
[B] O=C(NCc1ccc(F)cc1)c1cc(Oc2ccc(/C=C/c3ccccn3)cc2)ccn1
Between A and B , which one shows the smaller IC50 number? Lab note: record the label of whichever item you select. A
(A: 28.9 µM, B: 45.1 µM)

[a] CC(C)NC(=O)c1cc(Oc2ccc(/C=C/c3ccncc3)cc2)ccn1
[b] O=C(NC1CCCCC1)c1cc(Oc2ccc(/C=C/c3ccccn3)cc2)ccn1
Please state the entry with greater IC50 among a and b . Indicate your choice by writing its label. a

###

- System: HepG2
- Protocol: Antiproliferative activity against VEGF-stimulated human HepG2 cells after 48 hrs by CCK8 assay
- Type: functional, cell-based
- Stated Conditions: HepG2, 48 h
Quantity Name: IC50 (µM)

O=C(Nc1ccccc1)c1cc(Oc2ccc(/C=C/c3ccccn3)cc2)ccn1 :: 30.2
O=C(c1cc(Oc2ccc(/C=C/c3ccccn3)cc2)ccn1)N1CCCC1 :: 27
